- SYSTEM TESTED: the molecule itself
- ASSAY NOTES: DEER
VALUE KIND: pKd
By convention, pKd is the negative base-10 log of a molar concentration.

Incoming: Return pKd for the following protein: BIR1 C12A/K19C-GdI (domain or fragment, BrPSPy-DO3A-Gd3+ (GdI) spin label on C19 (K19C) via a thioether bond) KTAVPADINCEEEFVEEFNRLKTFANFPSGSPVSASTLARAGFLYTGEGDTVRCFSCHAAVDRWQYGDSAVGRHRKVSPNCRFINGFYLE
Outgoing: 3.90

Incoming: Return pKd for the following protein: BIR1 C12A/V24C-GdI (domain or fragment, BrPSPy-DO3A-Gd3+ (GdI) spin label on C24 (V24C) via a thioether bond) KTAVPADINKEEEFCEEFNRLKTFANFPSGSPVSASTLARAGFLYTGEGDTVRCFSCHAAVDRWQYGDSAVGRHRKVSPNCRFINGFYLE
Outgoing: 3.90

Lab note: next protein to report on.
Incoming: Return pKd for the following protein: WT BIR1 C12-GdI (first baculoviral IAP repeat domain of XIAP, spin-labelled at C12 with BrPSPy-DO3A-Gd3+) (domain or fragment, BrPSPy-DO3A-Gd3+ (GdI) spin label on C12 via a thioether bond) KTCVPADINKEEEFVEEFNRLKTFANFPSGSPVSASTLARAGFLYTGEGDTVRCFSCHAAVDRWQYGDSAVGRHRKVSPNCRFINGFYLE
Outgoing: 3.90
